# TARGET_OR_SYSTEM: Albumin (Bos taurus)
# METHOD_NOTES: bovine serum albumin binders on microarray, profiling panel, artefact control for SMM control protein annotation, biochemical, small-molecule microarray, Alexa647 label, 635/667 nm fluorescence (AID 1118);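 also: score merges 667 nm emission intensity and signal-to-noise per printed compound spot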
# DETAILS: BSA-A647 binding, fluorescence 635 nm, higher = more signal
MEASURED_ATTRIBUTE: composite z-score
The reply should be a number, written without any unit.

Examples with their reported composite z-score follow.
MOLECULE: CCC(=O)[C@]12O[C@@]3([C@@H]4C(=O)OCC[C@@H]41)N(CC)C(C)=C(C(=O)OC)[C@@H](c1ccccc1)N3C2=O
QUANTITATIVE_RESULT: -0.499
--
MOLECULE: O=C(CS)NCCCCCNC(=O)[C@H]1C[C@H]2C(=O)N[C@@H](Cc3ccccc3)C(=O)N2[C@H]1c1ccc(O)cc1
QUANTITATIVE_RESULT: 0.237
--
MOLECULE: COCCOC(=O)N1C(=O)[C@@]2(c3cc(C#CCCO)ccc31)[C@H](c1ccc(O)cc1)N1[C@H](c3ccccc3)[C@H](c3ccccc3)OC(=O)[C@H]1[C@@H]2C(=O)Nc1nc2ccccc2s1
QUANTITATIVE_RESULT: 0.0742

Query compound follows.
Requested field: composite z-score. Item: CN(C)CCCC[C@@H]1NC(=O)[C@@H]2C[C@H](C(=O)O)[C@H](c3ccc(O)cc3)N2C1=O -1.07

###

# Tested on: Plasmodium falciparum Sir2 (PF13_0152, Sir2A)
# METHOD_NOTES: pfSir2 binders on small-molecule microarrays, primary screen, biochemical, small-molecule microarray, 635 nm fluorescence (AID 1098);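 also: score merges spot fluorescence intensity with its signal-to-noise ratio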
# DETAILS: small-molecule microarray binding, fluorescence 635 nm; higher = more signal
MEASURED_ATTRIBUTE: composite z-score
The answer should be a number; do not append a unit.

Which composite z-score is listed for CO[C@H]1COC(=O)[C@@H](Cc2ccccc2)NC(=O)[C@@H](C)COC(=O)CC=C[C@@H]1C ? 0.318

Check C=CCC(OC(C)=O)[C@@H]1[C@@H](N(Cc2ccc(-c3ccccc3)cc2)C(=O)c2ccc(C)cc2)c2cc(OCCCO)ccc2N1C(=O)c1ccc(-c2ccccc2)cc1 (stereo not given in full) too. -0.151

What do you have for CN1C2C=C(c3ccc(CO)cc3)C(C3C(=O)N(C(N)=O)C(=O)C32)C1c1cccs1 (stereo not given) ? 1.41

Please give the result for O=C1C[C@@](C(=O)NCCN2CCOCC2)(c2ccc([N+](=O)[O-])cc2)[C@@H](c2ccc(CO)cc2)N1C1CCCCC1 too. 1.2

Follow-up entry: CO[C@H]1COC(=O)CC=C[C@H](C)COC(=O)[C@@H](OCc2ccccc2)C=C[C@@H]1C 0.558

Same question for Cc1ccc(S(=O)(=O)N2[C@@H](c3ccccc3)C(C(=O)O)=CC[C@H]2c2ccccc2)cc1 please. 0.0714

How about COc1ccc(CCNC(=O)[C@@]2(c3ccc([N+](=O)[O-])cc3)CC(=O)N(C(C)C)[C@@H]2c2ccc(CO)cc2)cc1 ? 1.25

Do the same for O=C1O[C@H](c2ccccc2)[C@H](c2ccccc2)N2[C@H]1[C@@H](C(=O)Nc1nc3ccccc3s1)[C@]1(C(=O)Nc3ccc(C#CC4(O)CCCCCC4)cc31)[C@H]2c1ccc(O)cc1 please 1.53

What do we get for CO[C@H]1COC(=O)[C@@H](OCc2ccccc2)C=C[C@H](C)[C@@H](OC)COC(=O)[C@H](OCc2ccccc2)C=C[C@@H]1C ? -0.0155

And the next one, CC(c1ccccc1)C(O)C1C=CC2C(=O)N(C)C(=O)C2N1N(c1ccccc1)c1ccccc1 (stereo not given) ? 0.0872

Same thing, different molecule: CN1C(=O)C2C=CC(C(O)C3CC=CCC3)N(Nc3ccccc3)C2C1=O (stereo not given) 1.09

Also C#C[C@H](O[Si](C#Cc1ccccc1)(C(C)C)C(C)C)c1ccccc1 ? 2.08

Also need COCCOC(=O)N1C(=O)[C@@]2(c3cc(C#CCNC(N)=O)ccc31)[C@H](c1ccccc1OCCO)N1[C@H](c3ccccc3)[C@H](c3ccccc3)OC(=O)[C@H]1[C@@H]2C(=O)NC[C@H](O)c1ccccc1 , thanks. 1.08

What about O=C(N1CCCCC1)[C@@]1(CCS(=O)(=O)c2ccccc2)N=C(c2ccc(OCCCO)cc2)O[C@H]1c1ccccc1 ? 0.332

Same question for CC/C=C/C(=O)N(C[C@@H]1CCCO1)[C@@H]1CC(C(=O)NCCO)=C[C@H](Oc2c(I)cc(CO)cc2OC)[C@H]1O please. -0.251
